# test: Sigma opioid receptor type 2 affinity in rat liver by employing [3H]ditolylguanidine as radioligand
Quick list: pKi per entry.
Quick note: pKi means taking -log10 of the concentration in moles per liter.

Worked cases, answers included:
COC1Cc2ccccc2C2(CCN(CCCCc3ccccc3)CC2)O1 (centres undefined) :: 6.51
OC1Cc2ccccc2C2(CCN(CCc3ccccc3)CC2)O1 (centres undefined) :: 6.97

Here's the next entry for you.
Query: Form field: reported pKi of COC1Cc2ccccc2C2(CCN(C/C=C/c3ccccc3)CC2)O1 (centres undefined)
Response: 5.40
